protocol summary: yeast display, Sf9 membrane polyspecificity reagent, FACS + sequencing; frameworks hold sequencing errors
result type: polyreactivity (PSR sort gate)

input sequence: QVQLEESGGGLVQAGGSLRISCAASGSTYYNYAMGWYRQAPGKERELVAAISRSGITYYADSVKGRFTISRDNAKNTVYLQMNSLKPEDTAVYYCAAGRRFDQSMYYWGQGTQVTVSS
value reported: high polyreactivity
//
input sequence: QVQLEESVGGLDQAVGSLRLSCAASGFTFNRYTMGWYRQAPGKEREFVASITRSGGSTYYADSVKGRFTISRDNAKNTVYLQMNSLTPEDTAVYYCAPVYQYSSRYDHWGQGTQVTVSS
value reported: high polyreactivity
//
input sequence: QVQLVESGGGVVQAGGSLRLSCAATGSTFYSYAMGWYRQAPGKEREFVASITRSGVRTYYADSVKGRFTISRDNAKNTVYLQMNSLKPDDTAFYYCAAERYYFPRSYRYGYWGQGTQVTVSS
value reported: low polyreactivity
//
input sequence: QVHLVESVGGLVQAGGSLRLSCASSGFTFPYYAMGWYRQQPGKERELVAAISWIGDSTYYADSVKGRFTISRDNAKNTVYLQMNSLKPEDTAVYYCAAGYKWSIPNRDYDYWGQGTQVTVSS
value reported: low polyreactivity
//
input sequence: QVQLVESGGGLVHAGGSLRLTCAASGSISSFYAMGWYRQEPGKERELVAGITSGGSTNYADSVKGRFTISRDNAKNTVYLQMNSLKAEDTAVYYCAAVYKCAGTHFDVFVKEFDYWGQGTQVTVSS
value reported: low polyreactivity
//
input sequence: QVQLVESGRGLVQAGGSLRLSCAASGRIFSTYAMGWYRQAPGKERELVAAISWRGSSTYYADSVKGRFTISRDNAKNTVYLQMNSLKPEDPAVYYCNADKANRYDWGQGTQVTVSS
value reported: high polyreactivity
//
input sequence: QVQLVESGGGLVHAGGSLRLSCAASGFIYDAYANGWYRQSPGKERELVAAIDSGGSTDYADSVKGRFTISRDNAKNTVYLQMNSLKPEDTAVYYCNAERAYLWWYNFDYWGQGTQVTVSS
value reported: low polyreactivity
//
input sequence: QVQLVESGGGLVQAGGSLRLSCAASGSIFYDNAMGWYRQAPGKERELVASIRWSGDSTYYADSVKGRFTISRDNAKNTVYLQMNSLKPEDTAVYYCAADPVEPYFTAIAYDFWGQGTQVTVSS
value reported: low polyreactivity
//
input sequence: QVQLVESGGGLVQAGGILRLSCAASGYIFGPNAMGCYRQAPGKERELVAGITWSTGNTYYAVSVKGRFTISRDNAKNTVYLHMNSLKPEDTAVYYCAADFYVAYEGVQPYWMDYWGQGTQVNVSS
value reported: low polyreactivity
//
input sequence: QVQLVESGGGLVQAGGSLRLSCAPSGRIFQANAMGWYRQAPGKERELVASISSGVSTNYADYVKGRFTISRDNAKNTVYLQMNSQKQEDTGVYYCADSDPSSAYWVGYYWYDNWGQGTQVTVSS
value reported: low polyreactivity
//
input sequence: QVQLVESGGGLVQAGGSLRLSCAASGLIVGGYTMGWYRQAPGKERDLVAAIDSADSTYYADSVKGRFTISRDNAKNTVYLQMNSLKPEDTAVYYCATYWFYSGPAFSLRETGGVNYWGQGTQVTVSS
value reported: low polyreactivity

Source listed as the nanobody polyreactivity screen of Harvey et al. (2022).
